- System: MCF-7 Tam1
- test_summary: drug sensitivity score (DSS) (DSS (dimensionless)); higher = more sensitive; extreme values may be limits of the assay
- setup_conditions: 4-OH-tamoxifen in medium 1 µM; 72 h
readout_label: drug sensitivity score

molecule: NCC(=O)CCC(=O)O
tested_target: MCF-7 Tam1
readout_label: drug sensitivity score
assay_value: 0
--
molecule: COc1cc2nccc(Oc3ccc(NC(=O)C4(C(=O)Nc5ccc(F)cc5)CC4)cc3)c2cc1OC [Cabozantinib (XL184)]
tested_target: MCF-7 Tam1
readout_label: drug sensitivity score
assay_value: 0
--
molecule: Oc1ncc(N(CCCl)CCCl)c(O)n1
tested_target: MCF-7 Tam1
readout_label: drug sensitivity score
assay_value: 0
--
molecule: Cc1c(N)nc([C@H](CC(N)=O)NC[C@H](N)C(N)=O)nc1C(=O)N[C@H](C(=O)N[C@H](C)[C@@H](O)[C@H](C)C(=O)N[C@H](C(=O)NCCc1nc(-c2nc(C(=O)NCCC[S+](C)C)cs2)cs1)[C@@H](C)O)[C@@H](OC1OC(CO)C(O)C(O)C1OC1OC(CO)C(O)C(OC(N)=O)C1O)c1cnc[nH]1 (stereo not given in full)
tested_target: MCF-7 Tam1
readout_label: drug sensitivity score
assay_value: 0
--
molecule: CC[C@H](Nc1ncnc2[nH]cnc12)c1nc2cccc(F)c2c(=O)n1-c1ccccc1
tested_target: MCF-7 Tam1
readout_label: drug sensitivity score
assay_value: 0
--
molecule: CO[C@@H](C(=O)N1Cc2[nH]nc(NC(=O)c3ccc(N4CCN(C)CC4)cc3)c2C1)c1ccccc1
tested_target: MCF-7 Tam1
readout_label: drug sensitivity score
assay_value: 0
--
molecule: NC(=O)c1cccc2cn(-c3ccc([C@@H]4CCCNC4)cc3)nc12
tested_target: MCF-7 Tam1
readout_label: drug sensitivity score
assay_value: 0
--
molecule: O=C(Nc1cccnc1)N1CCC(Cc2cccc(Oc3ccc(C(F)(F)F)cn3)c2)CC1
tested_target: MCF-7 Tam1
readout_label: drug sensitivity score
assay_value: 9.98
--
molecule: Nc1nc2[nH]cnc2c(=S)[nH]1
tested_target: MCF-7 Tam1
readout_label: drug sensitivity score
assay_value: 1.96
--
molecule: CS(=O)(=O)N1CCN(Cc2cc3nc(-c4cccc5[nH]ncc45)nc(N4CCOCC4)c3s2)CC1
tested_target: MCF-7 Tam1
readout_label: drug sensitivity score
assay_value: 8.69
--
molecule: CCNC(=O)c1noc(-c2cc(C(C)C)c(O)cc2O)c1-c1ccc(CN2CCOCC2)cc1
tested_target: MCF-7 Tam1
readout_label: drug sensitivity score
assay_value: 3.94
--
molecule: COc1cc(F)c(F)c(Nc2ccc(I)cc2F)c1NS(=O)(=O)C1(C[C@H](O)CO)CC1 [Refametinib (RDEA119)]
tested_target: MCF-7 Tam1
readout_label: drug sensitivity score
assay_value: 3.77
--
molecule: CCOc1cc2ncc(C#N)c(Nc3ccc(OCc4ccccn4)c(Cl)c3)c2cc1NC(=O)/C=C/CN(C)C
tested_target: MCF-7 Tam1
readout_label: drug sensitivity score
assay_value: 0
--
molecule: CCc1c2c(nc3ccc(OC(=O)N4CCC(N5CCCCC5)CC4)cc13)-c1cc3c(c(=O)n1C2)COC(=O)[C@]3(O)CC
tested_target: MCF-7 Tam1
readout_label: drug sensitivity score
assay_value: 0
--
molecule: CCCC(CCC)C(=O)O
tested_target: MCF-7 Tam1
readout_label: drug sensitivity score
assay_value: 0
